# Tested on: mice bearing PSMA-expressing LNCAP cancer xenografts
# Assay remarks: Biodistribution of 68Ga-labeled compounds
# Format: in vivo
# Condition notes: 1 h post-injection
Measurement type: Lacrimal uptake (% ID/g)

O=C([O-])CN1CCN(CC(=O)[O-])CCN(CC(=O)NCCCC[C@H](NC(=O)CNC(=O)CCCc2ccc(Cl)cc2)C(=O)NC[C@H]2CC[C@H](C(=O)N[C@@H](Cc3ccc4ccccc4c3)C(=O)NCCCC[C@H](NC(=O)N[C@@H](CCC(=O)O)C(=O)O)C(=O)O)CC2)CCN(CC(=O)[O-])CC1.[68Ga+3] [^68Ga-HTK03055] = 1.82
O=C([O-])CN1CCN(CC(=O)[O-])CCN(CC(=O)NCCCC[C@H](NC(=O)CNC(=O)CCCc2ccc(Br)cc2)C(=O)NC[C@H]2CC[C@H](C(=O)N[C@@H](Cc3ccc4ccccc4c3)C(=O)NCCCC[C@H](NC(=O)N[C@@H](CCC(=O)O)C(=O)O)C(=O)O)CC2)CCN(CC(=O)[O-])CC1.[68Ga+3] [^68Ga-HTK03058] = 0.69

1: O=C([O-])CN1CCN(CC(=O)[O-])CCN(CC(=O)NCC2CCC(C(=O)NC(Cc3c4ccccc4cc4ccccc34)C(=O)NCCCCC(NC(=O)NC(CCC(=O)O)C(=O)O)C(=O)O)CC2)CCN(CC(=O)[O-])CC1.[68Ga+3] (stereo not shown) [^68Ga-HTK03041]
2: O=C([O-])CN1CCN(CC(=O)[O-])CCN(CC(=O)NCC2CCC(C(=O)NC(Cc3ccc4cc5ccccc5cc4c3)C(=O)NCCCCC(NC(=O)NC(CCC(=O)O)C(=O)O)C(=O)O)CC2)CCN(CC(=O)[O-])CC1.[68Ga+3] (stereo not shown) [^68Ga-HTK03027]
Select the item whose Lacrimal uptake value is smaller, choosing between 1 and 2 . Respond with the label that goes with your answer.
2

====

# Test system: mice bearing PSMA-expressing LNCAP cancer xenografts
# Assay remarks: Biodistribution of 68Ga-labeled compounds
# Format: in vivo
# Condition notes: 3 h post-injection
Measurement type: Stomach uptake (% ID/g)
Use % ID/g as the unit, but write only the number.

Documented Stomach uptake of O=C([O-])CN1CCN(CC(=O)[O-])CCN(CC(=O)NCCCC[C@H](NC(=O)CNC(=O)CCCc2ccc(Cl)cc2)C(=O)NC[C@H]2CC[C@H](C(=O)N[C@@H](Cc3ccc4ccccc4c3)C(=O)NCCCC[C@H](NC(=O)N[C@@H](CCC(=O)O)C(=O)O)C(=O)O)CC2)CCN(CC(=O)[O-])CC1.[68Ga+3] [^68Ga-HTK03055] : 0.59

For record O=C([O-])CN1CCN(CC(=O)[O-])CCN(CC(=O)NCCCC[C@H](NC(=O)CNC(=O)CCCc2ccc(I)cc2)C(=O)NC[C@H]2CC[C@H](C(=O)N[C@@H](Cc3ccc4ccccc4c3)C(=O)NCCCC[C@H](NC(=O)N[C@@H](CCC(=O)O)C(=O)O)C(=O)O)CC2)CCN(CC(=O)[O-])CC1.[68Ga+3] [^68Ga-HTK03024] the listed Stomach uptake is 0.70

====

Listing of recorded Bone uptake by entry.
# System: mice bearing PSMA-expressing LNCAP cancer xenografts
# Assay remarks: Biodistribution of 68Ga-labeled compounds
# Type: in vivo
# Condition notes: 3 h post-injection
Give a bare numeral; the unit % ID/g is implied.

O=C([O-])CN1CCN(CC(=O)[O-])CCN(CC(=O)NCC2CCC(C(=O)NC(Cc3c4ccccc4cc4ccccc34)C(=O)NCCCCC(NC(=O)NC(CCC(=O)O)C(=O)O)C(=O)O)CC2)CCN(CC(=O)[O-])CC1.[68Ga+3] (centres unmarked) [^68Ga-HTK03041] = 0.98

Read the next record carefully.
So for COc1ccc(CCCC(=O)NCC(=O)N[C@@H](CCCCNC(=O)CN2CCN(CC(=O)[O-])CCN(CC(=O)[O-])CCN(CC(=O)[O-])CC2)C(=O)NC[C@H]2CC[C@H](C(=O)N[C@@H](Cc3ccc4ccccc4c3)C(=O)NCCCC[C@H](NC(=O)N[C@@H](CCC(=O)O)C(=O)O)C(=O)O)CC2)cc1.[68Ga+3] [^68Ga-HTK03086] , the logged Bone uptake turned out to be 0.33

====

# System: mice bearing PSMA-expressing LNCAP cancer xenografts
# Assay remarks: Biodistribution of 68Ga-labeled compounds
# Type: in vivo
# Condition notes: 1 h post-injection
Measurement type: Seminal uptake (% ID/g)
Quick reminder: number only, in % ID/g, skip the unit.

Consider the worked cases shown below.
O=C([O-])CN1CCN(CC(=O)[O-])CCN(CC(=O)NCCCC[C@H](NC(=O)CNC(=O)CCCc2ccc([N+](=O)[O-])cc2)C(=O)NC[C@H]2CC[C@H](C(=O)N[C@@H](Cc3ccc4ccccc4c3)C(=O)NCCCC[C@H](NC(=O)N[C@@H](CCC(=O)O)C(=O)O)C(=O)O)CC2)CCN(CC(=O)[O-])CC1.[68Ga+3] [^68Ga-HTK03089] = 0.66
O=C([O-])CN1CCN(CC(=O)[O-])CCN(CC(=O)NCCCC[C@H](NC(=O)CNC(=O)CCCc2ccccc2)C(=O)NC[C@H]2CC[C@H](C(=O)N[C@@H](Cc3ccc4ccccc4c3)C(=O)NCCCC[C@H](NC(=O)N[C@@H](CCC(=O)O)C(=O)O)C(=O)O)CC2)CCN(CC(=O)[O-])CC1.[68Ga+3] [^68Ga-HTK03056] = 0.74

Now consider the entry below.
Entry COc1ccc(CCCC(=O)NCC(=O)N[C@@H](CCCCNC(=O)CN2CCN(CC(=O)[O-])CCN(CC(=O)[O-])CCN(CC(=O)[O-])CC2)C(=O)NC[C@H]2CC[C@H](C(=O)N[C@@H](Cc3ccc4ccccc4c3)C(=O)NCCCC[C@H](NC(=O)N[C@@H](CCC(=O)O)C(=O)O)C(=O)O)CC2)cc1.[68Ga+3] [^68Ga-HTK03086] ; Seminal uptake = 0.71

====

# System: mice bearing PSMA-expressing LNCAP cancer xenografts
# Assay remarks: Biodistribution of 68Ga-labeled compounds
# Format: in vivo
# Condition notes: 1 h post-injection
Measurement type: Stomach uptake (% ID/g)

P: O=C([O-])CN1CCN(CC(=O)[O-])CCN(CC(=O)NCC2CCC(C(=O)NC(Cc3ccc4cc5ccccc5cc4c3)C(=O)NCCCCC(NC(=O)NC(CCC(=O)O)C(=O)O)C(=O)O)CC2)CCN(CC(=O)[O-])CC1.[68Ga+3] (stereo not shown) [^68Ga-HTK03027]
Q: O=C([O-])CN1CCN(CC(=O)[O-])CCN(CC(=O)NCC2CCC(C(=O)NC(Cc3ccc4ccc5cccc6ccc3c4c56)C(=O)NCCCCC(NC(=O)NC(CCC(=O)O)C(=O)O)C(=O)O)CC2)CCN(CC(=O)[O-])CC1.[68Ga+3] (stereo not shown) [^68Ga-HTK03029]
R: CCCCCCC(NC(=O)C1CCC(CNC(=O)CN2CCN(CC(=O)[O-])CCN(CC(=O)[O-])CCN(CC(=O)[O-])CC2)CC1)C(=O)NCCCCC(NC(=O)NC(CCC(=O)O)C(=O)O)C(=O)O.[68Ga+3] (stereo not shown) [^68Ga-HTK03026]
Given 3 compounds, produce a descending ranking by Stomach uptake. Could you list the labels in the order requested?
Q, P, R

====

# Test system: mice bearing PSMA-expressing LNCAP cancer xenografts
# Assay remarks: Biodistribution of 68Ga-labeled compounds
# Format: in vivo
# Condition notes: 1 h post-injection
Measurement type: Urine uptake (% ID/g)
Return type: number; implicit unit % ID/g.

O=C([O-])CN1CCN(CC(=O)[O-])CCN(CC(=O)NCCCC[C@H](NC(=O)CNC(=O)CCCc2ccc(Cl)cc2)C(=O)NC[C@H]2CC[C@H](C(=O)N[C@@H](Cc3ccc4ccccc4c3)C(=O)NCCCC[C@H](NC(=O)N[C@@H](CCC(=O)O)C(=O)O)C(=O)O)CC2)CCN(CC(=O)[O-])CC1.[68Ga+3] [^68Ga-HTK03055] = 14.6

Kindly review the next compound as well.
Briefly, Urine uptake measured for O=C([O-])CN1CCN(CC(=O)[O-])CCN(CC(=O)NCC2CCC(C(=O)NC(Cc3ccc4cc5ccccc5cc4c3)C(=O)NCCCCC(NC(=O)NC(CCC(=O)O)C(=O)O)C(=O)O)CC2)CCN(CC(=O)[O-])CC1.[68Ga+3] (centres unmarked) [^68Ga-HTK03027] : 844

====

# System: mice bearing PSMA-expressing LNCAP cancer xenografts
# Assay remarks: Biodistribution of 68Ga-labeled compounds
# Format: in vivo
# Condition notes: 3 h post-injection
Measurement type: Lacrimal uptake (% ID/g)
Record the value in % ID/g, omitting the unit from your answer.

Quick note, Lacrimal uptake for O=C([O-])CN1CCN(CC(=O)[O-])CCN(CC(=O)NCCCC[C@H](NC(=O)CNC(=O)CCCc2ccc([N+](=O)[O-])cc2)C(=O)NC[C@H]2CC[C@H](C(=O)N[C@@H](Cc3ccc4ccccc4c3)C(=O)NCCCC[C@H](NC(=O)N[C@@H](CCC(=O)O)C(=O)O)C(=O)O)CC2)CCN(CC(=O)[O-])CC1.[68Ga+3] [^68Ga-HTK03089] landed at 0.00
